MEASURED ON: Neuronal acetylcholine receptor subunit alpha-7 (Homo sapiens)
PROTOCOL DESCRIPTION: Agonist activity at human alpha7 nAChR expressed in Xenopus laevis oocytes assessed as induction of channel current at 100 uM at -90 mV holding potential by two-electrode voltage clamp method relative to acetylcholine
Assay type: cell-based
The source made the active and inactive calls. No cut-off for these calls is given here.
OUTCOME MEASURE: Activity

* CCCC(C)Oc1ccc2c(ccc3cc(C(=O)N[C@H]4CN5CCC4CC5)cn32)c1 (some centres not stated) | inactive
* CC(C)Oc1ccc2c(ccc3cc(C(=O)N[C@H]4CN5CCC4CC5)cn32)c1 | inactive
* O=C(N[C@H]1CN2CCC1CC2)c1cc2ccc3cc(-c4ccncc4)ccc3n2c1 | < 60%
* CC(C)(C)c1ccc(-c2ccc3c(ccc4cc(C(=O)N[C@H]5CN6CCC5CC6)cn43)c2)cc1 | 60 to 120%
* O=C(N[C@H]1CN2CCC1CC2)c1cc2ccc3cc(OCc4ccccc4)ccc3n2c1 | < 60%
* CCCOc1ccc2c(ccc3cc(C(=O)N[C@H]4CN5CCC4CC5)cn32)c1 | < 60%
* O=C(N[C@H]1CN2CCC1CC2)c1cc2ccc3cc(OC4CCC4)ccc3n2c1 | < 60%
* O=C(N[C@H]1CN2CCC1CC2)c1cc2ccc3cc(OC(F)F)ccc3n2c1 | 60 to 120%
* O=C(N[C@H]1CN2CCC1CC2)c1cc2ccc3cc(-c4ccccc4)ccc3n2c1 | 60 to 120%
* Cc1ccccc1-c1ccc2c(ccc3cc(C(=O)N[C@H]4CN5CCC4CC5)cn32)c1 | > 120%
* O=C(N[C@H]1CN2CCC1CC2)c1cc2n(c1)CCC2 | < 60%
* O=C(N[C@H]1CN2CCC1CC2)c1cc2ccc3cc(O)ccc3n2c1 | > 120%
* O=C(N[C@H]1CN2CCC1CC2)c1cc2ccc3cc(-c4ccc(F)cc4)ccc3n2c1 | inactive
* CCC(CC)Oc1ccc2c(ccc3cc(C(=O)N[C@H]4CN5CCC4CC5)cn32)c1 | inactive
* Cc1ccc2c(ccc3cc(C(=O)N[C@H]4CN5CCC4CC5)cn32)c1 | > 120%
* C=CCOc1ccc2c(ccc3cc(C(=O)N[C@H]4CN5CCC4CC5)cn32)c1 | inactive
* O=C(N[C@H]1CN2CCC1CC2)c1cc2ccc3cc(OCc4ccc(F)cc4)ccc3n2c1 | < 60%
* O=C(N[C@H]1CN2CCC1CC2)c1cc2ccc3cc(OCc4cccnc4)ccc3n2c1 | 60 to 120%
* Cc1cc(-c2ccc3c(ccc4cc(C(=O)N[C@H]5CN6CCC5CC6)cn43)c2)ccn1 | < 60%
* O=C(N[C@H]1CN2CCC1CC2)c1cc2n(c1)CCCC2 | < 60%
* O=C(N[C@H]1CN2CCC1CC2)c1cc2ccc3cc(-c4cccnc4)ccc3n2c1 | 60 to 120%
* O=C(N[C@H]1CN2CCC1CC2)c1cc2ccc3cc(-c4ccsc4)ccc3n2c1 | < 60%

* * *

MEASURED ON: Neuronal acetylcholine receptor subunit alpha-7 (Homo sapiens, UniProt P36544)
Sequence (P36544 whole entry): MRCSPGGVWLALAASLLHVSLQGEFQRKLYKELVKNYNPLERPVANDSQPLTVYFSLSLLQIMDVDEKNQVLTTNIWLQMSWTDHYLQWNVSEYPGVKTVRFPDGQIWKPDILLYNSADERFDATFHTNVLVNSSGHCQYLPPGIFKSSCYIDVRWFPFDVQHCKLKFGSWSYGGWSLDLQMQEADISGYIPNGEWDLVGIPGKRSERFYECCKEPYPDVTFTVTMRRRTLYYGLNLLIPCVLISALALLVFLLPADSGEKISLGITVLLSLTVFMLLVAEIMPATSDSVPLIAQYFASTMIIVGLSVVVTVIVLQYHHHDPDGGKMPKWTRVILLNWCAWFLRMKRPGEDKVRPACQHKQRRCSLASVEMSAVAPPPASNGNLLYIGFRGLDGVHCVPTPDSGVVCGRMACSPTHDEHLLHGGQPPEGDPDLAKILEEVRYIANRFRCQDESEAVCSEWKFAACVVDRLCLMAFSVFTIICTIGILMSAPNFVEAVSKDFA
PROTOCOL DESCRIPTION: Agonist activity at human alpha7 nAChR expressed in Xenopus laevis oocytes assessed as peak current amplitude at -90 mV holding potential by two-electrode voltage clamp method relative to acetylcholine
Assay type: cell-based
// no (0) strictly below 30% in Emax; yes (1) otherwise

• O=C(N[C@H]1CN2CCC1CC2)c1cc2ccc3cc(F)ccc3n2c1 = yes (1)
• O=C(N[C@H]1CN2CCC1CC2)c1cc2ccc3ccccc3n2c1 = yes (1)
• C#CCOc1ccc2c(ccc3cc(C(=O)N[C@H]4CN5CCC4CC5)cn32)c1 = yes (1)
• O=C(N[C@H]1CN2CCC1CC2)c1cc2cccc(Cl)c2s1 = no (0)
• O=C(N[C@H]1CN2CCC1CC2)c1cc2ccc3cc(O)ccc3n2c1 = yes (1)
• Cc1ccccc1-c1ccc2c(ccc3cc(C(=O)N[C@H]4CN5CCC4CC5)cn32)c1 = no (0)

* * *

MEASURED ON: Neuronal acetylcholine receptor; alpha3/beta4 (Homo sapiens, UniProt P30926+P32297)
Sequence (P30926 whole entry): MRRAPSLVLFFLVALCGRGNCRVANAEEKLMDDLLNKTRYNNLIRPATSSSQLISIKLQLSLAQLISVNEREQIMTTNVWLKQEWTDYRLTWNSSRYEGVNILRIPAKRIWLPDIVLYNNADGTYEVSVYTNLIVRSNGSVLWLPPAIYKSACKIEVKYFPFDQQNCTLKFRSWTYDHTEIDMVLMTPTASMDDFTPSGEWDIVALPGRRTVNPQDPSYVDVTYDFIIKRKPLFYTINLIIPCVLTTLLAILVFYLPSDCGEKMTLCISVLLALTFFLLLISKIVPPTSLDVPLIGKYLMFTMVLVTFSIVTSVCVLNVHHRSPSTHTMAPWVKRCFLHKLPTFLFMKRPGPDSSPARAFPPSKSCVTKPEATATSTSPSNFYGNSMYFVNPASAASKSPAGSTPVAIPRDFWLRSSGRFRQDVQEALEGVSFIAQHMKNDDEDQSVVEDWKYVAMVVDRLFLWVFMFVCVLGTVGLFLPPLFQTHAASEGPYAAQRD
Sequence (P32297 whole entry): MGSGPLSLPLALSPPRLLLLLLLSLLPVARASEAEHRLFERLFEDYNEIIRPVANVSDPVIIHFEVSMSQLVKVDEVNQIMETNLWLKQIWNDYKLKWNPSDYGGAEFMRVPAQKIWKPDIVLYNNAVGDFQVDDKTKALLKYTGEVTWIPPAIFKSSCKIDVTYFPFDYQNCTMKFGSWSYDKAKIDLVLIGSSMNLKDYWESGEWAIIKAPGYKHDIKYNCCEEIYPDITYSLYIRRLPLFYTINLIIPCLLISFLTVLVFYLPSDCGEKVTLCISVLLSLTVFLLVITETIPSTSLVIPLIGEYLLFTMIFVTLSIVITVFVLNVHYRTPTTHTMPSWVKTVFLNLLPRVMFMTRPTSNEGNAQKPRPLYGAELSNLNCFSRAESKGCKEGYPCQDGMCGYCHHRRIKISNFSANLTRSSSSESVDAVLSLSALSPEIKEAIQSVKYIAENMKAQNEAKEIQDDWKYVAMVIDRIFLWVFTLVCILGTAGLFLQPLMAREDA
PROTOCOL DESCRIPTION: Antagonist activity at alpha3beta4 nAChR (unknown origin) expressed in Xenopus laevis oocytes assessed as inhibition of acetylcholine-induced channel current at -90 mV holding potential by two-electrode voltage clamp method
pIC50: −log10 of the molar value.
OUTCOME MEASURE: pIC50

* O=C(N[C@H]1CN2CCC1CC2)c1cc2ccc3ccccc3n2c1 | 5.00

* * *

MEASURED ON: Neuronal acetylcholine receptor subunit alpha-7 (Homo sapiens)
PROTOCOL DESCRIPTION: Induction of desensitization at human alpha7 nAChR expressed in Xenopus laevis oocytes assessed as inhibition of acetylcholine induced current treated with compound prior to 100 uM acetylcholine challenge at -90 mV holding potential by two-electrode voltage clamp method
OUTCOME MEASURE: IC50 (nM)

* O=C(N[C@H]1CN2CCC1CC2)c1cc2ccc3ccccc3n2c1 | 21.2

* * *

MEASURED ON: Neuronal acetylcholine receptor subunit alpha-7 (Homo sapiens, UniProt P36544)
PROTOCOL DESCRIPTION: Agonist activity at human alpha7 nAChR expressed in Xenopus laevis oocytes preincubated with 1 uM alpha7 type-2 PAM PNU-120596 at -90 mV holding potential by two-electrode voltage clamp method
Format: cell-based
pEC50: −log10 of the molar value.
OUTCOME MEASURE: pEC50

* O=C(N[C@H]1CN2CCC1CC2)c1cc2ccc3ccccc3n2c1 | 6.92

* * *

MEASURED ON: Neuronal acetylcholine receptor subunit alpha-7 (Homo sapiens)
PROTOCOL DESCRIPTION: Agonist activity at human alpha7 nAChR expressed in Xenopus laevis oocytes assessed as induction of channel current at -90 mV holding potential by two-electrode voltage clamp method
Format: cell-based
pEC50: −log10 of the molar value.
Output TRUE for pEC50 not less than 6; output FALSE otherwise.

- O=C(N[C@H]1CN2CCC1CC2)c1cc2ccc3cc(F)ccc3n2c1: FALSE
- O=C(N[C@H]1CN2CCC1CC2)c1cc2cccc(Cl)c2s1: TRUE
- Cc1ccccc1-c1ccc2c(ccc3cc(C(=O)N[C@H]4CN5CCC4CC5)cn32)c1: FALSE
- O=C(N[C@H]1CN2CCC1CC2)c1cc2ccc3cc(O)ccc3n2c1: FALSE
- O=C(N[C@H]1CN2CCC1CC2)c1cc2ccc3ccccc3n2c1: FALSE
- C#CCOc1ccc2c(ccc3cc(C(=O)N[C@H]4CN5CCC4CC5)cn32)c1: FALSE
